Numbers sourced from ChEMBL document CHEMBL3769333.

- Tested on: Escherichia coli
- Assay text: Induction of Escherichia coli supercoiled pUC19 DNA cleavage at 240 uM after 24 hrs by agarose gel electrophoresis
Calls of active or inactive are those of the source. The calls are words filed in the database; no cut-off is given here.
Measurement type: Activity

COc1ccc(-n2n[n+](C)c3c2C(=O)c2ccccc2C3=O)cc1.O=S(=O)([O-])C(F)(F)F = Active
COc1cc(-n2n[n+](C)c3c2C(=O)c2ccccc2C3=O)cc(OC)c1OC.O=S(=O)([O-])C(F)(F)F = Active
C[n+]1nn(-c2ccc(C(F)(F)F)cc2)c2c1C(=O)c1ccccc1C2=O.O=S(=O)([O-])C(F)(F)F = Active
C[n+]1nn(-c2ccc(Cl)cc2)c2c1C(=O)c1ccccc1C2=O.O=S(=O)([O-])C(F)(F)F = Active
